These entries and their values trace back to the supplement of paper PMC6757056.

B1: library; a variant is named by its letters at N, in order (parent)
chain: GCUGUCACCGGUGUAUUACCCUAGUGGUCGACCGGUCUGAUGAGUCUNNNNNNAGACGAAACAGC

Variants of: B1
protocol_summary: FACS-Seq fitted mean relative fluorescence mCherry/BFP with ligand (log10 relative fluorescence); ligand: hypoxanthine (xanthine aptamer); ligand concentration (+) FACS-Seq: 5 mM; higher = higher reporter protein expression
condition_set: HEK293T, ligand present: yes
Tag: t if measured FACS-Seq fitted mean (log10) is not below 0.6, f if it is.

| variant_spec | assigned_category |
| --- | --- |
| GUGAGC | t |
| CCAAUG | t |
| UUUUCC | f |
| ACCAUA | f |
| GCGAAG | f |
| AAGUCG | t |
| AACACC | t |
| UGCUCA | f |
| UCGCGU | f |
| UCGAGA | f |
| GCGGAA | t |
